meta.source: the supplement of paper PMC10567573

B1: S100A14 (parent)
chain: KIANLGSCNDSKLEFRSFWELIGE

# Variants of: B1
# TEST METHOD NOTES: protein stability index of a GFP-peptide fusion (GPS, HEK-293T) (PSI 1-6); higher = more stable;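 note: lentivirally expressed fusions sorted by FACS into six bins by GFP to DsRed ratio, PSI derived from sequencing read proportions per bin multiplied by bin number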
# TEST CONDITIONS: c terminus: a fixed tail appended
MEASURED PROPERTY: protein stability index
Answer field: number only, no words.

Example entries and their recorded answers appear below.
Can you share its protein stability index? I mean this variant: `F18Y`
1.97

Also need `I2Q` , thanks.
1.32

Also need `R16Q` , thanks.
1.98

Also need `I2A` , thanks.
1.77

Also need `L5S` , thanks.
2.29

Also need `L13A` , thanks.
2.17

Also need `R16E` , thanks.
1.92

Also need `F15E` , thanks.
2.65

Further cases:
Can you share its protein stability index? I mean this variant: `W19T`
2.29

Also need `N4R` , thanks.
1.07
